Values compiled from patent US20240254087A1.

Counter-ions that a name gives are not always drawn.
parameterMeasured: melting point

[[record]]
compound = "COc1cc([N+](=O)[O-])c(OC)cc1CCNCc1cccc(C)c1O (as salt: HCl) [25N-NB-2-OH-3-Me (18)]"
measvalue = "177.6 to 179.5 °C"

[[record]]
compound = "COc1cc([N+](=O)[O-])c(OC)cc1CCNCc1ccccc1 (as salt: HCl) [25N-NB (2)]"
measvalue = "220 to 221 °C"

[[record]]
compound = "COc1cc([N+](=O)[O-])c(OC)cc1CCNCc1cccc2c1OC(F)(F)O2 (as salt: HCl) [25N-NBMDF2 (13)]"
measvalue = "208.4 to 209.8 °C"

[[record]]
compound = "COc1cc([N+](=O)[O-])c(OC)cc1CCNCc1cccc(F)c1OC (as salt: HCl) [25N-NB-2-MeO-3-F (19)]"
measvalue = "155 to 156.7 °C"

[[record]]
compound = "COc1cc([N+](=O)[O-])c(OC)cc1CCNCc1ccccc1OC (as salt: HCl) [25N-NBOMe (4)]"
measvalue = "166.4 to 167.8 °C"

[[record]]
compound = "COc1cc(Br)cc(OC)c1CC(C)NCc1cccc2ccccc12 (centres unmarked) (as salt: HCl)"
measvalue = "207.9 to 209.2 °C"

[[record]]
compound = "COc1cc(CCNCc2cccc3ccccc23)cc(OC)c1Br (as salt: HCl)"
measvalue = "232.8 to 234.3 °C"

[[record]]
compound = "COc1cc(Br)c(CCNCc2cccc(C)c2O)cc1OC (as salt: HCl)"
measvalue = "169.4 to 169.9 °C"

[[record]]
compound = "COc1cc([N+](=O)[O-])c(OC)cc1CCNCc1ccc(F)cc1 (as salt: HCl) [25N-NB-4-F (25)]"
measvalue = "180 to 181 °C"

[[record]]
compound = "COc1cc([N+](=O)[O-])c(OC)cc1CCNCc1ccccc1[N+](=O)[O-] (as salt: HCl) [25N-NBNO2 (15)]"
measvalue = "200.5 to 201.7 °C"


Quick note, melting point for COc1cc(OC)c(OC)cc1CCNCc1ccccc1-c1cccs1 (as salt: HCl) landed at 158.4 to 159.8 °C

Quick note, melting point for COc1cc(OC)c(OC)cc1CCNCc1cccc(I)c1 (as salt: HCl) landed at 155.5 to 156.1 °C

Quick note, melting point for COc1cc([N+](=O)[O-])c(OC)cc1CCNCc1cccc(C)c1 (as salt: HCl) [25N-NB-3-Me (22)] landed at 194.4 to 195.5 °C

Quick note, melting point for COc1cc([N+](=O)[O-])c(OC)cc1CCNCc1ccccc1C(F)(F)F (as salt: HCl) [25N-NBCF3 (14)] landed at 156.7 to 159.1 °C

Quick note, melting point for COc1cc([N+](=O)[O-])c(OC)cc1CCNCc1ccccc1O (as salt: HCl) [25N-NBOH (3)] landed at 205 to 206.7 °C

Quick note, melting point for COc1cc(OC)c(OC)cc1CCNC(C)c1cccc2ccccc12 (centres unmarked) (as salt: HCl) landed at 195.2 to 196.4 °C

Quick note, melting point for COc1cc([N+](=O)[O-])c(OC)cc1CCNCc1cccc2ccccc12 (as salt: HCl) [25N-N-1-Nap (16)] landed at 191.8 to 192.3 °C

---

- System: 5-HT2A
- assaySummary: Ca2+ flux assay, 5-HT2A
- Assay type: cell-based, human
- reportedConditions: Gq/11 Ca2+ mobilization; higher number = skewed towards 5-HT2A
# Lookup of reported 5-HT2A/5-HT2c Selectivity Factor ΔLog(Emax/EC50) keyed by entry
Respond numerically, and do not add a unit to the figure.

[[record]]
compound = "COc1cc([N+](=O)[O-])c(OC)cc1CCNCc1ccccc1Cl [25N-NBCl (8)]"
measvalue = 43.3


Quick note, 5-HT2A/5-HT2c Selectivity Factor ΔLog(Emax/EC50) for COc1cc([N+](=O)[O-])c(OC)cc1CCNCc1cccc(F)c1 [25N-NB-3-F (24)] landed at 154.4

---

- targetDesc: 5-HT2C (Homo sapiens)
- Sequence (P28335 33-458): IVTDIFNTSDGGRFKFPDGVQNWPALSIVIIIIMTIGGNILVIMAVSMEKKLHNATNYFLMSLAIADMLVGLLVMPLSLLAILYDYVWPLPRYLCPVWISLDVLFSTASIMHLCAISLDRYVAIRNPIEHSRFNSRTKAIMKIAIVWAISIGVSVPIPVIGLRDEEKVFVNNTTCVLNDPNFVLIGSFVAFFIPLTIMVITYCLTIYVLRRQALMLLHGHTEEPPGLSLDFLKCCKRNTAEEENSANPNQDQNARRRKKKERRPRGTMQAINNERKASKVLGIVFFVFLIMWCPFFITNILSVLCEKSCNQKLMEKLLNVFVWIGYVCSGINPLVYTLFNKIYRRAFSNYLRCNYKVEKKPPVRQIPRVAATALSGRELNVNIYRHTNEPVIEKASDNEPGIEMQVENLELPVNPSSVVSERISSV
parameterMeasured: Ki
Answer format: value, then unit.

For orientation, consider the following solved cases.
[[record]]
molecule = "COc1cc([N+](=O)[O-])c(OC)cc1CCNCc1ccccc1OC [25N-NBOMe (4)]"
measvalue = "6.92 nM"

[[record]]
molecule = "COc1cc([N+](=O)[O-])c(OC)cc1CCNCc1cccc(F)c1OC [25N-NB-2-MeO-3-F (19)]"
measvalue = "40.7 nM"

[[record]]
molecule = "COc1cc([N+](=O)[O-])c(OC)cc1CCNCc1ccc(C)cc1 [25N-NB-4-Me (23)]"
measvalue = "631 nM"

[[record]]
molecule = "COc1cc([N+](=O)[O-])c(OC)cc1CCNCc1ccccc1I [25N-NBI (10)]"
measvalue = "43.7 nM"

[[record]]
molecule = "COc1cc([N+](=O)[O-])c(OC)cc1CCNCc1ccc(F)cc1 [25N-NB-4-F (25)]"
measvalue = "813 nM"

[[record]]
molecule = "COc1cc([N+](=O)[O-])c(OC)cc1CCNCc1cccc(F)c1 [25N-NB-3-F (24)]"
measvalue = "224 nM"

[[record]]
molecule = "COc1cc([N+](=O)[O-])c(OC)cc1CCNCc1cccc2ccccc12 [25N-N-1-Nap (16)]"
measvalue = "4.27 nM"

[[record]]
molecule = "COc1ccc(OC)c(CNCCc2cc(OC)c([N+](=O)[O-])cc2OC)c1 [25N-NB-2,5-DiMeO (20)]"
measvalue = "145 nM"


Quick note, Ki for COc1cc([N+](=O)[O-])c(OC)cc1CCNCc1cccc(C)c1 [25N-NB-3-Me (22)] landed at 39.8 nM

Quick note, Ki for COc1cc([N+](=O)[O-])c(OC)cc1CCN [2C-N (1), reference compound] landed at 162 nM

---

- targetDesc: 5-HT2A (Homo sapiens, UniProt P28223)
- Sequence (P28223 whole entry): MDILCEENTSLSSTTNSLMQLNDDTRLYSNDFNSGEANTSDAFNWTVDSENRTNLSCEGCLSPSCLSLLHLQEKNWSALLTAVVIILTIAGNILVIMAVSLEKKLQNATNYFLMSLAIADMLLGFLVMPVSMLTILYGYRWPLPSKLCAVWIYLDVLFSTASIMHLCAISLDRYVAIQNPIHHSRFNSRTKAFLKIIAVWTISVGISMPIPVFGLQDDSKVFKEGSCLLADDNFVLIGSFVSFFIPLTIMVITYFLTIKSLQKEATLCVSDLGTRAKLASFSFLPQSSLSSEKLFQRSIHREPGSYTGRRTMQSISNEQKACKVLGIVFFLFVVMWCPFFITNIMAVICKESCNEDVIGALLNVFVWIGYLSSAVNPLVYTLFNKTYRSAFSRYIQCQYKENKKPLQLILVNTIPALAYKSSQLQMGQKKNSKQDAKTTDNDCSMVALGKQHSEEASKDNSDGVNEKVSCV
- assaySummary: Ca2+ flux assay, 5-HT2A
- Type: cell-based
- Parameters: expressed in transfected cells
- reportedConditions: 5-HT2A EC50, nM, Ca2+ flux
- Method: Cell lines were maintained in DMEM containing 10% FBS, 10 μg/mL Blasticidin (Invivogen), and 100 μg/mL Hygromycin B (GoldBio). […] After dye load, cells were allowed to equilibrate to room temperature for 15 minutes, and then placed in a FLIPR^TETRA fluorescence imaging plate reader (Molecular Devices). Fluorescence for the FLIPR^TETRA were programmed to read baseline fluorescence for 10 s (1 read/s), and afterward 5 μl of drug per well was added and read for a total of 5-10 min (1 read/s). […]
Recorded EC50 determines the label; the label ranges are 0 = under 2 nM, 1 = from 2 nM up to 3 nM, 2 = 3 nM and over

Query string: Entry COc1cc([N+](=O)[O-])c(OC)cc1CCNCc1cccc(C)c1O [25N-NB-2-OH-3-Me (18)] belongs to which category?
Result string: 0

Query string: Entry COc1cc([N+](=O)[O-])c(OC)cc1CCNCc1ccccc1C(F)(F)F [25N-NBCF3 (14)] belongs to which category?
Result string: 2

Query string: Entry CCOc1ccccc1CNCCc1cc(OC)c([N+](=O)[O-])cc1OC [25N-NBOEt (5)] belongs to which category?
Result string: 0

---

- targetDesc: 5-HT2A (Homo sapiens, UniProt P28223)
- assaySummary: Ca2+ flux assay, 5-HT2A
- Format: cell-based
- Design: expressed in transfected cells
- reportedConditions: Ca2+ flux; read-out: 5-HT2A EC50
parameterMeasured: pEC50
In textbook form, pEC50 equals minus log to base ten of the concentration in mol/L.

Quick note, pEC50 for COc1cc([N+](=O)[O-])c(OC)cc1CCNCc1ccccc1OC(F)(F)F [25N-NBOCF3 (12)] landed at 8.09
